- STUDY_TARGET: full-length recombinant human or mouse PAD4 (species used for Table 7 and FIG. 7 not stated)
- PROTOCOL_DESCRIPTION: cell-based or functional assay
PROPERTY: Relative citrullination activity

binder="A11 (antibody, V domains shown, Chicken variable regions in a mouse chimeric antibody (IgG1); also called anti-PAD4 antibody A11) VH: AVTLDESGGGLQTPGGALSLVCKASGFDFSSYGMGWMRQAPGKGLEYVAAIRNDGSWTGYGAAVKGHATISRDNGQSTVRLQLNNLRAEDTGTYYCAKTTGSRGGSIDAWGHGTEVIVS VL: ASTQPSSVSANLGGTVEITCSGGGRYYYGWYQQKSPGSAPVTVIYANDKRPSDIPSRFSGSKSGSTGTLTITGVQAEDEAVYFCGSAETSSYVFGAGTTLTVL" observed_value="64 relative to PBS = 100"
binder="E9 (antibody, V domains shown, Chicken variable regions in a mouse chimeric antibody (IgG1); also called anti-PAD4 antibody E9) VH: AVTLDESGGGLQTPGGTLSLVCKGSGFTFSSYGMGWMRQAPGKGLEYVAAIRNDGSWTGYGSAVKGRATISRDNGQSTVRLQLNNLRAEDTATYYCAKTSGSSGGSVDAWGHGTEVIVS VL: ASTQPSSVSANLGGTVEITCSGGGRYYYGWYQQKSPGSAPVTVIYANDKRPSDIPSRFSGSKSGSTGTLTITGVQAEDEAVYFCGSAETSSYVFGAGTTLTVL" observed_value="59 relative to PBS = 100"
binder="H7 (antibody, V domains shown, Chicken variable regions in a mouse chimeric antibody (IgG1); also called anti-PAD4 antibody H7) VH: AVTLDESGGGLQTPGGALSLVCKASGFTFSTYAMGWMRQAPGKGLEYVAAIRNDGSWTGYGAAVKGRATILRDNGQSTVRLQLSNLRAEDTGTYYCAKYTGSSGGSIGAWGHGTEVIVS VL: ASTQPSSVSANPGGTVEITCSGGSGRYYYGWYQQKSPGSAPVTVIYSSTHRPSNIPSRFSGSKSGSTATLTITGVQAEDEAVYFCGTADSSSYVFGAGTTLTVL" observed_value="35 relative to PBS = 100"
binder="G6 (antibody, V domains shown, Chicken variable regions in a mouse chimeric antibody (IgG1); also called anti-PAD4 antibody G6) VH: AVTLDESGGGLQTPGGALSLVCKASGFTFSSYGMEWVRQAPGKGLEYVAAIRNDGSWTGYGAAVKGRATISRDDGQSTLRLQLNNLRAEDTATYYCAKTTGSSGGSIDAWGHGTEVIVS VL: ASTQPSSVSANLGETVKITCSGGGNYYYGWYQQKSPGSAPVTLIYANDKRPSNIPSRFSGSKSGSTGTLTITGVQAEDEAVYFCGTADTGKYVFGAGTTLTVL" observed_value="69 relative to PBS = 100"
binder="G8 (antibody, V domains shown, Chicken variable regions in a mouse chimeric antibody (IgG1); also called anti-PAD4 antibody G8) VH: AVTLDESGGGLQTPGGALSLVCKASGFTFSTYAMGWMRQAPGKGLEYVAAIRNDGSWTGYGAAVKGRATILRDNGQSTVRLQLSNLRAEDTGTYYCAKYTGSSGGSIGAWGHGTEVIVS VL: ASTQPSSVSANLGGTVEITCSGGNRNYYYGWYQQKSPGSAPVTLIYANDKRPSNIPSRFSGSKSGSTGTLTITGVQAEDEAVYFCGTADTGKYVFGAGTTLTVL" observed_value="63 relative to PBS = 100"
binder="G9 (antibody, V domains shown, Chicken variable regions in a mouse chimeric antibody (IgG1); also called anti-PAD4 antibody G9) VH: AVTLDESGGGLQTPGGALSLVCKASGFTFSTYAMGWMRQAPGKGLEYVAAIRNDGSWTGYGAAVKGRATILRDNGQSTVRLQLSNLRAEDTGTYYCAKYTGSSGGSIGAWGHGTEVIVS VL: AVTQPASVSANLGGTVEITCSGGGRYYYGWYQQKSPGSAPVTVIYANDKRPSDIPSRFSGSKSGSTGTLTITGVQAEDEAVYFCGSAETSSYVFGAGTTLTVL" observed_value="68 relative to PBS = 100"
